# targetUnderTest: DLG1_2, Q12959
# Sequence (Q12959 314-412): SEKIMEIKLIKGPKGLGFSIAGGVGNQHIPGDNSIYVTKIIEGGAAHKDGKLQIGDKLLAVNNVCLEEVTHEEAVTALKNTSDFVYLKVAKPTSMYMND
# assayComment: holdup assay
# Set-up: key: below the threshold = too weak to quantify, mostly under pKd 3.1 to 4
# appliedConditions: plain residues with an end cap or a label only (N-terminal biotin on a linker: ado-ado)
valueKind: pKd

{"binder": "KKMPSIESDV [GRIN2A, Q12879]", "result": 5.44}
{"binder": "VYPNAKVELV [PDLIM4_iso2, P50479;P50479-1]", "result": "below the threshold"}
{"binder": "YLEPVLSSEL [ATP2A2, P16615;P16615-3]", "result": "below the threshold"}
{"binder": "IPLDGETEEL [MYOZ1, Q9NP98]", "result": "below the threshold"}
